# experiment: Pharmacokinetic assessment of plasma concentrations (LC-MS/MS, non-compartmental analysis) after mono/dual and triple therapy
# particulars: male, human, plasma, oral, AUCinf, geometric least square mean, ilaprazole in triple therapy, period 2 of part 1; N = 13
value-type: AUC(0-inf) (ng·h/mL)
Answers are plain numbers, in ng·h/mL.

Answer with reported AUC(0-inf) of COc1ccnc(C[S+]([O-])c2nc3cc(-n4cccc4)ccc3[nH]2)c1C (stereo not shown) 3490
